TARGET DESC: UniProt P43220
Sequence (P43220 24-463): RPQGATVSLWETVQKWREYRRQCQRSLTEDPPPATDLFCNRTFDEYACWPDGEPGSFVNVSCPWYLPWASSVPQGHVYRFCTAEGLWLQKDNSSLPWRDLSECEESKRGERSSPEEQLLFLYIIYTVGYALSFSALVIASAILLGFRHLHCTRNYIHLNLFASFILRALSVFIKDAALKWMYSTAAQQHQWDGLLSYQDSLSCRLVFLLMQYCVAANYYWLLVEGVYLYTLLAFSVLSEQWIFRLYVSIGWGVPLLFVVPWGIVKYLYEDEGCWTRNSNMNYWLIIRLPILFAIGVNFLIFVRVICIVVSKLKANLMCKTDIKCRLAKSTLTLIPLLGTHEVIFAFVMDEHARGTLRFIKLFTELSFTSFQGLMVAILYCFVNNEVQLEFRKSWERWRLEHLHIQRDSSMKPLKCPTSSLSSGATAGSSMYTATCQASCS
ASSAY TEXT: GLP1R cAMP HTRF assay, HEK293/GLP-1R/CRE/Luc (HEK293T cells)
Assay type: cell-based
CONDITION INFO: read-out: EC50
RESULT TYPE: EC50

Example results:
O=C(O)c1ccc2nc(CN3CCN(c4cncc(OCc5ccc(Cl)cc5F)n4)CC3)n(C[C@@H]3CCO3)c2c1    ≤ 15 nM
O=C(O)c1ccc2nc(CN3CC=C(c4cccc(OCc5ncc(C(F)(F)F)cc5F)n4)CC3)n(C[C@@H]3CCO3)c2c1    ≤ 15 nM

Record O=C(O)c1ccc2nc(CN3CC=C(c4ccc(F)c(OCc5ccc(C#CC6CC6)cc5F)c4)CC3)n(C[C@@H]3CCO3)c2c1 / UniProt P43220, EC50 recorded as ≤ 150 nM

Record O=C(O)c1ccc2nc(CN3CCC(n4c(=O)n(CCc5ccc(Cl)cc5F)c5ccccc54)CC3)n(C[C@@H]3CCO3)c2c1 / UniProt P43220, EC50 recorded as > 1000 nM

Record O=C(O)c1ccc2nc(CN3CC=C(c4cccc(OCc5ccc(F)cc5)n4)CC3)n(C[C@@H]3CCO3)c2c1 / UniProt P43220, EC50 recorded as ≤ 15 nM

Record O=C(O)c1ccc2nc(CN3CC=C(c4cccc(OCc5ccc(-n6nccn6)cc5)n4)CC3)n(C[C@@H]3CCO3)c2c1 / UniProt P43220, EC50 recorded as ≤ 150 nM

Record O=C(O)c1ccc2nc(CN3CC=C(c4cccc(OCc5ccc(C#CC6CC6)cc5F)n4)CC3)n(C[C@@H]3CCO3)c2c1 / UniProt P43220, EC50 recorded as ≤ 15 nM

Record N#Cc1ccc(COc2nc(C3=CCN(Cc4nc5ccc(C(=O)O)cc5n4C[C@@H]4CCO4)CC3)c(F)cc2F)c(F)c1 / UniProt P43220, EC50 recorded as ≤ 15 nM
